# credit: patent US20190309023A1

Listing of entries alongside the reported Binding Kb.
- Tested on: T1, Human chemokine receptor CXCR4 (human, UniProt P61073 1-352)
- T1 construct: whole, on cells; Used as membranes (0.5 ug membrane protein) of Chem-1 cells that express the receptor; also called C-X-C chemokine receptor type 4; fusin
- T1 sequence (P61073 whole entry): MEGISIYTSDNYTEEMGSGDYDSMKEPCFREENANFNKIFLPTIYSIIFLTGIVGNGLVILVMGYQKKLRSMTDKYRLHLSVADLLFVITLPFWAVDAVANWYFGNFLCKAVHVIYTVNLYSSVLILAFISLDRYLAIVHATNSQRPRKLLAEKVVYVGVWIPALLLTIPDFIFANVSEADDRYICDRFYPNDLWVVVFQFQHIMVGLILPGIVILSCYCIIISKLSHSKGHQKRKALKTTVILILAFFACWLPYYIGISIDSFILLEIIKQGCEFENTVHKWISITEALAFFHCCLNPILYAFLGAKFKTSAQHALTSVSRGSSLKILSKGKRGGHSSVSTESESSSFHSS
- Test description: competition with [125I]SDF-1α, human CXCR4 membranes (Chem-1 cells)
Bridge positions count the residues as written; N and C are the ends. Square brackets hold non-standard residues; d marks the D form. * marks the point of attachment. 2Nal = N[C@@H](Cc1ccc2ccccc2c1)C(=O)O; hCys = N[C@@H](CCS)C(=O)O; Bz = O=C(c1ccccc1)*; Mpa = O=C(O)CCS; iPr = CC(C)*
Your answer is read as nM, so omit the unit and give the number.

Study these solved cases before continuing.
{"Binder": "[Mpa]YK(iPr)[dR][2Nal]GCK(iPr)K(Ac)-NHEt (disulfide 1-7; also: acetate salt, Synthetic cyclic peptide, acetate salt; also called MLB-027) [Cyclo[Mpa-Tyr-Lys(iPr)-(D-Arg)-2Nal-Gly-Cys]-Lys(iPr)-Lys(Ac)-NH(Et)]", "Experimental endpoint": "Binding Kb", "Val": 0.15}
{"Binder": "Bz-CYK(iPr)[dR][2Nal]GCK(iPr)G-NH2 (linker 1-7 via 1,2‑bisbromomethyl benzene; also: acetate salt, Acetate salt) [MLB-030]", "Experimental endpoint": "Binding Kb", "Val": 0.39}
{"Binder": "Bz-CYK(iPr)[dR][2Nal]GCK(iPr)G-NH2 (disulfide 1-7; also: acetate salt, Synthetic cyclic peptide, acetate salt; also called MLB-023) [Benzoyl-cyclo[Cys-Tyr-Lys(iPr)-(D-Arg)-2Nal-Gly-Cys]-Lys(iPr)-Gly-NH2]", "Experimental endpoint": "Binding Kb", "Val": 1}

Attention now shifts to the item below.
Which Binding Kb value belongs to Bz-[hCys]YK(iPr)[dR][2Nal]GCK(iPr)G-NHEt (disulfide 1-7; also: acetate salt, Synthetic cyclic peptide, acetate salt; also called MLB-024) [Benzoyl-cyclo[hCys-Tyr-Lys(iPr)-(D-Arg)-2Nal-Gly-Cys]-Lys(iPr)-Gly-NH(Et)] ? 0.39
